testMethodNotes: qHTS assay to identify small molecule antagonists of the thyroid receptor (TR) signaling pathway - cell viability counter screen (AID 743064); note: nearly all actives have a fitted effect of over 50% in size
experimentalSetup: GH3.TRE-Luc viability, CellTiter-Fluor, 24 h; series mostly up to 70.3 µM
Inconclusive results are not listed. Activity calls are given as the source filed them. Calls come from the whole dose curve; as a rule, active = well fitted cell-killing curve with a large enough effect in the repeat runs; inconclusive = weak or mixed curves, or effect the other way; inactive = no such curve, though single readings can be large or run the other way.
Pick from TRUE (active), FALSE (inactive) when you respond.

Solved cases (3 shown):
CC[C@H]1CC[C@H](NCc2cc3c(cc2OC)[C@H]2C[C@H]2C(=O)N3C)[C@H](c2ccccc2)N1: TRUE
Cc1ccc([N+](=O)[O-])c(N)c1: FALSE
CN1CCN(C2=Nc3cc(F)ccc3Cc3ccccc32)CC1: TRUE

Identify the outcome logged in this assay for the molecule shown: `O=[N+]([O-])c1nccn1CO[C@@H](CO)[C@H](O)CO`
FALSE

Ok, now `Cc1c(C(=O)NCCO)[n+](=O)c2ccccc2n1[O-]`
FALSE

Ok, now CC(CNC1CCCCC1)OC(=O)c1ccccc1 (centres undefined)
FALSE

Ok, now `CC1=CC(=O)CC(C)(C)C1=O`
FALSE

Ok, now `CN1CCN(c2c(F)cc3c(=O)c(C(=O)O)cn4c3c2SCC4)CC1`
FALSE

Ok, now CCOC(=O)COc1ccc2c(c1)CC(NCC(O)c1cccc(Cl)c1)CC2 (centres undefined)
TRUE

Ok, now `Clc1cccc(-c2cc(Cl)cc(Cl)c2)c1`
FALSE

Ok, now CC(C)NCC(O)COc1ccc(CCOCC2CC2)cc1 (centres undefined)
FALSE

Ok, now `COC(=O)N[C@H](C(=O)N[C@@H](Cc1ccccc1)[C@@H](O)CN(Cc1ccc(-c2ccccn2)cc1)NC(=O)[C@@H](NC(=O)OC)C(C)(C)C)C(C)(C)C`
FALSE

Ok, now `CC(C)C1=CC2=CC[C@@H]3[C@](C)(CCC[C@@]3(C)C(=O)O)[C@H]2CC1`
FALSE

Ok, now `O=C1CCCCCCCCCCC(=O)OCCO1`
FALSE

Ok, now `CCCCCCOc1ccc(N)cc1`
FALSE

Ok, now `COc1cc(C)ccc1C(C)C`
FALSE

Ok, now `OCCN(CCO)c1ccccc1`
FALSE

Ok, now `OC[C@H]1O[C@@H](O[C@H]2[C@H](O)[C@@H](O)[C@H](O)O[C@@H]2CO)[C@H](O)[C@@H](O)[C@H]1O`
FALSE

Ok, now `CC(=O)Nc1ccc(C)c(Cl)c1`
FALSE

Ok, now `COC(=O)c1ccc2cc(C(=O)OC)ccc2c1`
FALSE

Ok, now `COC(=O)c1ccc(OC)cc1`
FALSE
